- target entity: human ETB receptor (Homo sapiens, UniProt P24530)
- Construct: expressed in transfected cells; host or cells: COS7 cells
- Sequence (P24530 27-442): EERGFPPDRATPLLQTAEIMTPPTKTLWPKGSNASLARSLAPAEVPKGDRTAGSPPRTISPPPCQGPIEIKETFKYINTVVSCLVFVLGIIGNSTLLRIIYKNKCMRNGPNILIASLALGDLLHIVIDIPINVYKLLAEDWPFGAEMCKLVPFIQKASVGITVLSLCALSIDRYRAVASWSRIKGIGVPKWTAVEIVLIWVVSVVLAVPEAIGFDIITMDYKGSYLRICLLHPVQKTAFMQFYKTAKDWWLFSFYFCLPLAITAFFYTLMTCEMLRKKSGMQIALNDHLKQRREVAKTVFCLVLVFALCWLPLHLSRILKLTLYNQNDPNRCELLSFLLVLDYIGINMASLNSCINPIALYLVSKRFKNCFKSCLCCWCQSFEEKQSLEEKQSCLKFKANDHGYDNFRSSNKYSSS
- assay procedure: Binding Test #2: inhibition of 125I-ET-1 binding to ETB receptors (transfected COS7 cell membranes)
- measurement parameters: Table 1; incubation at 4° C.; read-out: ETB
property name: IC50 (µM)

Consider the following illustrative entries.
1) Cc1noc(NS(=O)(=O)c2ccc(-c3ccccc3)s2)c1Br :: 0.417
2) Cc1noc(NS(=O)(=O)c2ccc(Br)s2)c1Br :: 2.26
3) Cc1noc(NS(=O)(=O)c2ccc(-c3ccsc3)s2)c1Br :: 0.38

A = Cc1noc(NS(=O)(=O)c2sccc2-c2ccccc2)c1Br
B = Cc1noc(NS(=O)(=O)c2sccc2Oc2ccccc2)c1Br
Problem: Endpoint returns whichever of A and B has the numerically higher IC50. Bench note: the answer is the label of the chosen record.
Solution: A
(A: 11.1 µM, B: 3.46 µM)

P = Cc1cc(S(=O)(=O)Nc2onc(C)c2Br)c(C)o1
Q = Cc1noc(NS(=O)(=O)c2c(C(C)C)sc3ccccc23)c1Br
R = Cc1ccc(NC(=O)c2sccc2S(=O)(=O)Nc2onc(C)c2Br)cc1
S = COc1ccc(-c2ccc(S(=O)(=O)Nc3onc(C)c3Br)s2)cc1
Problem: Sort ascending by IC50. Provide the labels, sequenced as the question asks.
Solution: S, R, Q, P
(S: 0.363 µM, R: 1.67 µM, Q: 5.7 µM, P: 36.5 µM)

A = COc1ccsc1S(=O)(=O)Nc1onc(C)c1C
B = CCc1sc2ccccc2c1S(=O)(=O)Nc1onc(C)c1Br
Problem: Lab note: check whether A or B shows the higher recorded IC50. Answer = label.
Solution: A
